Recorded below: Ki, system Cannabinoid receptor 2 (Homo sapiens, UniProt P34972).

These recorded examples may help you get a feel for the data.
Cc1cc(C)cc(-c2ccc(C(C)(C)CO)cc2O)c1	600 nM
CCCCCCC(C)(C)c1ccc(-c2c(C)cccc2C)c(O)c1	18 nM
Cc1cc(C)cc(-c2ccc(C(C)(C)CCCO)cc2O)c1	56 nM
CCCCCCC(C)(C)c1ccc(-c2cc(C)cc(C)c2)c(C(=O)NC(C)C)c1	> 1000 nM
CCCCCCC(C)(C)c1ccc(-c2cccc(OC)c2OC)c(O)c1	7.8 nM

Below: the item to evaluate.
// lookup Ki for CCCCCCC1(c2ccc(-c3cc(C)cc(C)c3)c(O)c2)CCCC1 5.5 nM
